- EXPERIMENTAL SYSTEM: HLA B*0801 (Homo sapiens, UniProt P01889, A93T/A95T/D138N/E176V/E187T/K202T/Q94N/R180D/S35A/V36M/Y33D/Y91F)
- MEASUREMENT PROTOCOL: biochemical
pIC50: −log10 of the molar value. Where a SMILES comes first, the peptide text is derived from it.
Everything with pIC50 lower than 9 is No; everything else, including exactly 9, is Yes.

Asked: Item CC[C@H](C)[C@H](NC(=O)[C@H](Cc1ccccc1)NC(=O)[C@H](CC(C)C)NC(=O)[C@@H](NC(=O)[C@H](CC(C)C)NC(=O)[C@H](Cc1ccccc1)NC(=O)[C@@H]1CCCN1C(=O)[C@@H](NC(=O)[C@@H](N)CC(C)C)[C@@H](C)CC)[C@@H](C)CC)C(=O)O [3102.0791] (H-LIPFLILFI-OH) with pIC50 of 9 or above?
Given back: No

Asked: Item CC(C)C[C@H](NC(=O)[C@H](C)NC(=O)[C@H](CO)NC(=O)[C@H](Cc1ccccc1)NC(=O)[C@H](CCCCN)NC(=O)[C@H](CCCNC(=N)N)NC(=O)[C@H](CC(C)C)NC(=O)[C@H](Cc1ccc(O)cc1)NC(=O)[C@@H](N)CO)C(=O)O [3102.0770] (H-SYLRKFSAL-OH) with pIC50 of 9 or above?
Given back: No

Asked: Item CSCC[C@H](NC(=O)[C@@H](N)CO)C(=O)N[C@@H](CCCCN)C(=O)N[C@H](C(=O)N[C@H](C(=O)N[C@@H](Cc1ccccc1)C(=O)N[C@@H](CCC(N)=O)C(=O)N[C@H](C(=O)N[C@@H](Cc1ccccc1)C(=O)O)C(C)C)C(C)C)[C@@H](C)O [3102.1083] (H-SMKTVFQVF-OH) with pIC50 of 9 or above?
Given back: No

Asked: Item CC[C@H](C)[C@H](NC(=O)[C@H](CCCNC(=N)N)NC(=O)[C@H](CCCCN)NC(=O)[C@H](CCSC)NC(=O)[C@@H](NC(=O)[C@@H](N)CC(N)=O)C(C)C)C(=O)N[C@@H](CC(N)=O)C(=O)N[C@@H](CS)C(=O)N[C@@H](Cc1ccccc1)C(=O)O [3102.0558] (H-NVMKRINCF-OH) with pIC50 of 9 or above?
Given back: No

Asked: Item CSCC[C@H](NC(=O)[C@H](CO)NC(=O)[C@H](Cc1c[nH]cn1)NC(=O)[C@H](CCCCN)NC(=O)[C@@H](NC(=O)[C@H](Cc1ccc(O)cc1)NC(=O)[C@H](CCSC)NC(=O)[C@@H](N)Cc1ccccc1)[C@@H](C)O)C(=O)N[C@@H](CC(C)C)C(=O)O [3102.0684] (H-FMYTKHSML-OH) with pIC50 of 9 or above?
Given back: Yes

Asked: Item CC[C@H](C)[C@H](NC(=O)[C@H](Cc1ccccc1)NC(=O)[C@H](CCCNC(=N)N)NC(=O)[C@H](CCC(=O)O)NC(=O)[C@@H](NC(=O)[C@H](CCSC)NC(=O)[C@@H](N)Cc1ccc(O)cc1)[C@@H](C)CC)C(=O)N[C@@H](CO)C(=O)N[C@@H](Cc1ccccc1)C(=O)O [3102.1085] (H-YMIERFISF-OH) with pIC50 of 9 or above?
Given back: Yes

====

- EXPERIMENTAL SYSTEM: H-2 K^k (Mus musculus, UniProt P04223)
- Sequence (P01887 21-119): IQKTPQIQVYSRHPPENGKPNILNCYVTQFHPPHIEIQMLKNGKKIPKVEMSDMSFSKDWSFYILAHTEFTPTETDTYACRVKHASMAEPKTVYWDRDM
- Sequence (P04223 22-369): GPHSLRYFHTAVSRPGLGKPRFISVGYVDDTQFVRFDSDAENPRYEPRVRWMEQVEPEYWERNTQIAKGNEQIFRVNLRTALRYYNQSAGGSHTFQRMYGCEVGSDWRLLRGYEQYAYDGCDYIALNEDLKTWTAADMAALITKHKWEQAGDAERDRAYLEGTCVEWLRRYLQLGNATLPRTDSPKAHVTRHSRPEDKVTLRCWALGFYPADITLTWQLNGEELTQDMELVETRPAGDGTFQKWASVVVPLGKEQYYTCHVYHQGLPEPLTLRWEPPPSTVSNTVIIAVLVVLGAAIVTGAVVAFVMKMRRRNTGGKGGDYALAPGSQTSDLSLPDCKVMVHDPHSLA
- Assay type: binding
Exercise: state measured Normalized average relative binding affinity(ARB) for each of the sequences provided.

Asked: Entry XXXXXXXWX [3064.0159] has what Normalized average relative binding affinity(ARB)?
Given back: 0.18

Asked: Entry XXXXFXXXX [3064.0085] has what Normalized average relative binding affinity(ARB)?
Given back: 0.19

Asked: Entry XXXXXXCXX [3064.0122] has what Normalized average relative binding affinity(ARB)?
Given back: 0.094

Asked: Entry XXXFXXXXX [3064.0065] has what Normalized average relative binding affinity(ARB)?
Given back: 0.38

Asked: Entry XXXEXXXXX [3064.0064] has what Normalized average relative binding affinity(ARB)?
Given back: 0.41

Asked: Entry XXXXXTXXX [3064.0117] has what Normalized average relative binding affinity(ARB)?
Given back: 0.70

Asked: Entry XXXXXAXXX [3064.0101] has what Normalized average relative binding affinity(ARB)?
Given back: 0.83

Asked: Entry XXXXXXXRX [3064.0155] has what Normalized average relative binding affinity(ARB)?
Given back: 0.10

Asked: Entry XXXIXXXXX [3064.0068] has what Normalized average relative binding affinity(ARB)?
Given back: 0.39

Asked: Entry XXXXXXXDX [3064.0143] has what Normalized average relative binding affinity(ARB)?
Given back: 0.26

Asked: Entry XXXXXXYXX [3064.0140] has what Normalized average relative binding affinity(ARB)?
Given back: 0.092

Asked: Entry XXXXHXXXX [3064.0087] has what Normalized average relative binding affinity(ARB)?
Given back: 0.022

Asked: Entry XXXXXEXXX [3064.0104] has what Normalized average relative binding affinity(ARB)?
Given back: 0.18

Asked: Entry XXXXXXXVX [3064.0158] has what Normalized average relative binding affinity(ARB)?
Given back: 0.38

Asked: Entry XXXXXXXIX [3064.0148] has what Normalized average relative binding affinity(ARB)?
Given back: 0.56

Asked: Entry XXXXXXDXX [3064.0123] has what Normalized average relative binding affinity(ARB)?
Given back: 0.030

====

- EXPERIMENTAL SYSTEM: HLA A*3001 (Homo sapiens, UniProt P04439, D140H/D185E/E176W/F33S/G80R/H175R/K168Q/R138E/R41S)
- MEASUREMENT PROTOCOL: biochemical
- Assay type: binding
Where a SMILES comes first, the peptide text is derived from it.
READOUT: pIC50
pIC50 is defined as minus the log10 of a concentration measured in mol/L.

Asked: Entry CC(C)[C@H](NC(=O)[C@H](Cc1ccc(O)cc1)NC(=O)[C@H](CO)NC(=O)[C@H](Cc1ccc(O)cc1)NC(=O)[C@@H](NC(=O)[C@@H]1CCCN1C(=O)[C@H](CCCCN)NC(=O)[C@H](Cc1ccc(O)cc1)NC(=O)[C@@H](N)CCCCN)C(C)C)C(=O)O [3102.0143] (H-KYKPVYSYV-OH) has what pIC50?
Given back: 9.13

Asked: Entry CSCC[C@H](NC(=O)[C@H](CCCNC(=N)N)NC(=O)CNC(=O)[C@H](CO)NC(=O)[C@H](CO)NC(=O)[C@@H](NC(=O)[C@@H](N)CCCCN)[C@@H](C)O)C(=O)N1CCC[C@H]1C(=O)N[C@H](C(=O)O)C(C)C [3102.0119] (H-KTSSGRMPV-OH) has what pIC50?
Given back: 8.70

Asked: Entry CC[C@H](C)[C@H](NC(=O)[C@@H]1CCCN1C(=O)[C@H](CCCCN)NC(=O)[C@@H](NC(=O)[C@@H](N)CCCNC(=N)N)[C@@H](C)O)C(=O)N[C@@H](CO)C(=O)N[C@@H](CCSC)C(=O)N[C@@H](Cc1ccc(O)cc1)C(=O)N[C@@H](Cc1ccccc1)C(=O)O [3102.0165] (H-RTKPISMYF-OH) has what pIC50?
Given back: 9.22

Asked: Entry CC(C)C[C@H](NC(=O)[C@@H](NC(=O)[C@H](CS)NC(=O)[C@H](C)NC(=O)[C@H](Cc1ccccc1)NC(=O)[C@H](CCCCN)NC(=O)[C@H](CO)NC(=O)[C@@H](N)CO)C(C)C)C(=O)N[C@@H](CCCCN)C(=O)O [3102.0265] (H-SSKFACVLK-OH) has what pIC50?
Given back: 8.00

====

- EXPERIMENTAL SYSTEM: HLA B*2705 (Homo sapiens, UniProt P01889, D138H/D201E/E176V/E204Q/G107R/H137Y/K202T/N104T/N87E/Q56L/Q94K/R106L/R155S/R180L/S101D/S121N/S48T/Y140D/Y33H/Y91C)
- Type: binding
- CONDITIONS: positional scanning combinatorial 9-mer library; normalized to 1.0 for the best residue at each position
# strict inequality: Normalized average relative binding affinity (ARB), HLA B*2705 < 0.2 yields Met, everything else yields Not met

Asked: Report whether reported Normalized average relative binding affinity (ARB), HLA B*2705 is lower than 0.2 (strictly) for XXTXXXXXX [3064.0057]
Given back: Not met

Asked: Report whether reported Normalized average relative binding affinity (ARB), HLA B*2705 is lower than 0.2 (strictly) for XLXXXXXXX [3064.0030]
Given back: Met

Asked: Report whether reported Normalized average relative binding affinity (ARB), HLA B*2705 is lower than 0.2 (strictly) for RXXXXXXXX [3064.0015]
Given back: Not met

Asked: Report whether reported Normalized average relative binding affinity (ARB), HLA B*2705 is lower than 0.2 (strictly) for XTXXXXXXX [3064.0037]
Given back: Met

Asked: Report whether reported Normalized average relative binding affinity (ARB), HLA B*2705 is lower than 0.2 (strictly) for XXNXXXXXX [3064.0052]
Given back: Not met

Asked: Report whether reported Normalized average relative binding affinity (ARB), HLA B*2705 is lower than 0.2 (strictly) for SXXXXXXXX [3064.0016]
Given back: Met

Asked: Report whether reported Normalized average relative binding affinity (ARB), HLA B*2705 is lower than 0.2 (strictly) for XXWXXXXXX [3064.0059]
Given back: Not met

Asked: Report whether reported Normalized average relative binding affinity (ARB), HLA B*2705 is lower than 0.2 (strictly) for VXXXXXXXX [3064.0018]
Given back: Met

Asked: Report whether reported Normalized average relative binding affinity (ARB), HLA B*2705 is lower than 0.2 (strictly) for XMXXXXXXX [3064.0031]
Given back: Met

Asked: Report whether reported Normalized average relative binding affinity (ARB), HLA B*2705 is lower than 0.2 (strictly) for XGXXXXXXX [3064.0026]
Given back: Met

Asked: Report whether reported Normalized average relative binding affinity (ARB), HLA B*2705 is lower than 0.2 (strictly) for XSXXXXXXX [3064.0036]
Given back: Met

Asked: Report whether reported Normalized average relative binding affinity (ARB), HLA B*2705 is lower than 0.2 (strictly) for XKXXXXXXX [3064.0029]
Given back: Met

Asked: Report whether reported Normalized average relative binding affinity (ARB), HLA B*2705 is lower than 0.2 (strictly) for XXFXXXXXX [3064.0045]
Given back: Not met

Asked: Report whether reported Normalized average relative binding affinity (ARB), HLA B*2705 is lower than 0.2 (strictly) for GXXXXXXXX [3064.0006]
Given back: Not met

Asked: Report whether reported Normalized average relative binding affinity (ARB), HLA B*2705 is lower than 0.2 (strictly) for TXXXXXXXX [3064.0017]
Given back: Met

Asked: Report whether reported Normalized average relative binding affinity (ARB), HLA B*2705 is lower than 0.2 (strictly) for XXCXXXXXX [3064.0042]
Given back: Met
